- study_system: Insulin-degrading enzyme (Homo sapiens) (UniProt P14735)
- Sequence (P14735 whole entry, looked up): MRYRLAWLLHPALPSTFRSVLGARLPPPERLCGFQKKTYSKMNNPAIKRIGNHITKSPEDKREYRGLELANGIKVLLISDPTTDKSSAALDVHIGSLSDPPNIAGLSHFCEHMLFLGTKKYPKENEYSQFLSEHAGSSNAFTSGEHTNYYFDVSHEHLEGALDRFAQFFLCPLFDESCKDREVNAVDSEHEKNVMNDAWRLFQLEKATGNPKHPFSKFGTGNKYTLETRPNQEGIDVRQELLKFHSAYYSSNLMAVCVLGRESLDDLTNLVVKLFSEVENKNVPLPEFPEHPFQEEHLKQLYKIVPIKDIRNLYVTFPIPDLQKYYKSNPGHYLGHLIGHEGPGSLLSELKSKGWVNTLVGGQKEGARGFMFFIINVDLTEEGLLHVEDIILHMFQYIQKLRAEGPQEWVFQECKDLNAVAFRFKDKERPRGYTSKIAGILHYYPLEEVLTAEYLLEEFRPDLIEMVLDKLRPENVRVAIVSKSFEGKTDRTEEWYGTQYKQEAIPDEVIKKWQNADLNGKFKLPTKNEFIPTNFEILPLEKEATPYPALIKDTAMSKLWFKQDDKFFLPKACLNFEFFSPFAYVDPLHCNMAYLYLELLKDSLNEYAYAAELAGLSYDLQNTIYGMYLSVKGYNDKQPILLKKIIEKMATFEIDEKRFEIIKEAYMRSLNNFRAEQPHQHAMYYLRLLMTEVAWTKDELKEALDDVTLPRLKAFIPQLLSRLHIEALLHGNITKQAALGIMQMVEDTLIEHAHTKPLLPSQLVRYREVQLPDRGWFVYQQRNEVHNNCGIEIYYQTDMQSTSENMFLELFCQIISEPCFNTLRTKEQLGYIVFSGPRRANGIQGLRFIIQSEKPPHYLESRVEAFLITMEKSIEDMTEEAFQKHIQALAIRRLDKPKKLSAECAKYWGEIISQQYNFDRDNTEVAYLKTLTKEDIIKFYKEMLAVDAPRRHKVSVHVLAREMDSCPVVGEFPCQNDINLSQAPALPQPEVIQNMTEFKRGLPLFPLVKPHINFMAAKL
- test_summary: recombinant IDE inhibition, cell-free – biochemical, fluorescence polarization, counter-screen for IDE inhibitor project, late-stage follow-up (AID 588711)
Active and inactive are the calls of the source. The rule behind the calls is not given here.
Your answer must be one of the following: active, inactive

# fetch the recorded call for `COc1cccc(-c2nnc(SCc3nc4ccccc4[nH]3)n2Cc2ccco2)c1` here active

# lookup: test call for `COc1cc(/C=C2\SC(=S)N(NC(C)=O)C2=O)ccc1OC(=O)c1ccco1` inactive

How did this test come out for `CCOc1ccc2[nH]c3c(N4CCN(C(=O)c5ccco5)CC4)ncnc3c2c1` ? active

Lab log entry: `Cn1c(SCc2nc3ccccc3[nH]2)nnc1-c1cccc(Cl)c1` — outcome as called in the assay? inactive

Would you mind telling me which call this test gave `O=C(CSc1nnc(-c2cccc(Cl)c2)n1Cc1ccco1)Nc1ccccc1C(F)(F)F` ? inactive

Dear all, I need the recorded test outcome for `O=C(Nc1cc(C(F)(F)F)cc(C(F)(F)F)c1)c1csc(-c2ccncc2)n1` , thank you. inactive

Short answer needed: outcome of this test for `Cn1c(=O)c(C(=O)CN2CCCc3ccccc32)c(N)n(Cc2ccccc2)c1=O` ? inactive

Test call for this molecule, please: `O=C(CSc1nnc(-c2cccc(Cl)c2)n1Cc1ccco1)Nc1ccc2cn[nH]c2c1` inactive

Kindly provide the recorded test outcome for the following molecule: `O=C(CSc1nnc(-c2cccc(Cl)c2)n1Cc1ccco1)Nc1ccc2c(c1)OCCO2` inactive

Outcome? `O=C(Nc1cccc(C(F)(F)F)c1)c1csc(-c2ccncc2)n1` active

Call for entry `O=C(CSc1nnc(-c2cccc(Cl)c2)n1Cc1ccco1)c1ccc2ccccc2c1` : inactive

Which result was noted for this molecule in the test: `O=C(C1CC1)N1CCN(c2ccnc3cc(Cl)ccc23)CC1` inactive

Recorded test outcome, item `O=C(Nc1ccc2oc(-c3cccnc3)nc2c1)c1ccc2c(c1)OCCO2` inactive

Which result was noted for this molecule in the test: COc1ccc(C(=O)N2CCN(C(=O)C3COc4ccccc4O3)CC2)cc1OC (centres undefined) inactive

Per the records of this test, what outcome belongs to `O=C(Nc1cccc(C(F)(F)F)c1)c1csc(Cc2cccc(C(F)(F)F)c2)n1` ? inactive

State the result this test recorded for `Clc1cccc(-c2nnc(SCc3nc4ccccc4[nH]3)n2-c2ccccc2)c1` . inactive

Could you check what this test reported for `Cc1ccc(-c2nc(C(=O)Nc3cccc(C(F)(F)F)c3)cs2)cc1` ? inactive

Answer briefly: the call reported for `Nc1c(C(=O)Nc2nccs2)sc2nc(-c3cccs3)cc(C(F)(F)F)c12` in this assay. inactive

For this molecule, state the assay outcome: `Cc1nc(-c2cccnc2)sc1C(=O)Nc1cccc(C(F)(F)F)c1` inactive

---

- study_system: Insulin-degrading enzyme (Homo sapiens) (UniProt P14735)
- test_summary: recombinant IDE inhibition, cell-free – biochemical, fluorescence polarization, counter-screen for IDE inhibitor project, late-stage follow-up (AID 588711)
The source made the active and inactive calls. How the calls were made is not given here.
Outcomes you can answer with include only these: YES (active), NO (inactive)

Check the results log: what was the call for `O=C(Nc1cccc(C(F)(F)F)c1)c1csc(-c2ccccc2)n1` ? NO

Write down the call the test reported for this compound. Item: `COc1ccc(NC(=O)CSc2nnc(CN3CCOCC3)n2C)cc1Cl` NO

Record lookup: outcome of this test for CC(Sc1nnc(-c2cccnc2)n1-c1ccccc1F)C(=O)N1CCCc2ccccc21 (stereo not given) ? NO

Tell me the assay call for `O=C(Nc1cccc(C(F)(F)F)c1)c1csc(-c2cccc(C(F)(F)F)c2)n1` please. NO

Hello, I am checking results. What call was entered for `Cc1ccc(C)c(N2C(=N)S/C(=C\c3ccc(-c4ccccc4C(=O)O)o3)C2=O)c1` ? NO

For `COc1ccc(-c2nc(C(=O)Nc3cccc(C(F)(F)F)c3)cs2)cc1` , which call appears in the assay record? NO

Could you kindly confirm the outcome this assay logged for `Cc1ccc(NC(=O)CSc2nnc(-c3cccc(Cl)c3)n2Cc2ccco2)c(C)c1` ? NO

Entry `O=c1c2ccccc2sn1-c1cc(S(=O)(=O)N2CCOCC2)ccc1N1CCOCC1` : call = ? YES

Outcome? `Cc1c(CCC(=O)NCCCn2ccnc2)c(=O)oc2cc3oc4c(c3cc12)CCCC4` YES

I'd appreciate the recorded outcome for `Clc1cccc(-c2nnc(SCc3nc4ccccc4[nH]3)n2Cc2ccco2)c1` from this test. YES
